assay: Body and organ weights after subcutaneous administration in beagle dogs (Example 8); assay type: in vivo; conditions: 30 mg/kg subcutaneous days 1, 3, 5, 8, 15, 22, 29, end of study
quantityKind: Mesenteric LN weight (g)
All answers are understood in g, so give the number only.

Give Mesenteric LN weight for the following substance: 830121 (AGAATCAAGCCCTGGC; 3-10-3 cEt gapmer, further chemistry not given here) [compound 830121]
12.2

Quick one: give measured Mesenteric LN weight for 830025 (antisense TTTGTAAATCGAAAGC; 3-10-3 cEt gapmer, further chemistry not given here) [compound 830025]
10.9

Provide only the value of recorded Mesenteric LN weight for 790615 (CCAATGAGAATGCTTC; 3-10-3 cEt gapmer, further chemistry not given here) [compound 790615]
10.2

###

assay: Hematology assays after subcutaneous administration in beagle dogs (Example 8); type: in vivo; details: 30 mg/kg subcutaneous days 1, 3, 5, 8, 15, 22, 29
Give Hemoglobin for every item shown.
Field format: number, assumed g/dL, no unit text.

Entry 830037 (antisense CTATTGGCTGATCTGG; 3-10-3 cEt gapmer, further chemistry not given here) [compound 830037] needs its Hemoglobin filled in; supply it.
17.5

// Input: 830025 (antisense TTTGTAAATCGAAAGC; 3-10-3 cEt gapmer, further chemistry not given here) [compound 830025] . Output its Hemoglobin only.
13.9

Give Hemoglobin for the following substance: 798781 (CGTAAGATTCACAGCA; 3-10-3 cEt gapmer, further chemistry not given here) [compound 798781]
16.2

For the substance 829994 (GGAGGCAGGGCCGCGA; 3-10-3 cEt gapmer, further chemistry not given here) [compound 829994] , give its measured Hemoglobin value.
15.3

Find the measured Hemoglobin of 830121 (AGAATCAAGCCCTGGC; 3-10-3 cEt gapmer, further chemistry not given here) [compound 830121] and report it.
18.5

For the substance 790615 (CCAATGAGAATGCTTC; 3-10-3 cEt gapmer, further chemistry not given here) [compound 790615] , report Hemoglobin.
14.5

###

Tested on: dog SMAD7 mRNA
Assay: Pharmacology: dog SMAD7 mRNA expression in liver, kidney, duodenum, ileum and colon after subcutaneous administration in beagle dogs (Example 8)
Type: in vivo
Details: 30 mg/kg subcutaneous, necropsy, liver, normalized to HPRT1
Protocol: There were 4 animals per group. The pharmacological activity of the Ionis oligonucleotides in dogs was assessed by measuring dog SMAD7 mRNA expression in liver, kidney, duodenum, ileum, and colon at necropsy. All the human ASOs used are complementary to dog SMAD7 mRNA. […]
I'd be grateful if you could share measured % inhibition of Smad7 mRNA expression (compared to control), Liver for these entries.
Unit % implied. Number only.

// Input: 830121 (AGAATCAAGCCCTGGC; 3-10-3 cEt gapmer, further chemistry not given here) [compound 830121] . Output its % inhibition of Smad7 mRNA expression (compared to control), Liver only.
0

Note down % inhibition of Smad7 mRNA expression (compared to control), Liver recorded for 829994 (GGAGGCAGGGCCGCGA; 3-10-3 cEt gapmer, further chemistry not given here) [compound 829994]
0

Note down % inhibition of Smad7 mRNA expression (compared to control), Liver recorded for 830037 (antisense CTATTGGCTGATCTGG; 3-10-3 cEt gapmer, further chemistry not given here) [compound 830037]
0

Report measured % inhibition of Smad7 mRNA expression (compared to control), Liver; entry is 830025 (antisense TTTGTAAATCGAAAGC; 3-10-3 cEt gapmer, further chemistry not given here) [compound 830025]
0

For the substance 798781 (CGTAAGATTCACAGCA; 3-10-3 cEt gapmer, further chemistry not given here) [compound 798781] , give its reported % inhibition of Smad7 mRNA expression (compared to control), Liver.
0

Identify measured % inhibition of Smad7 mRNA expression (compared to control), Liver corresponding to 790615 (CCAATGAGAATGCTTC; 3-10-3 cEt gapmer, further chemistry not given here) [compound 790615]
9

###

Answer each item with its documented Levels of TNF-α.
test system: human peripheral blood mononuclear cells (PBMCs); experiment: Human PBMC activation assay, cytokine levels (IL-10, IL-6, MCP-1, TNF-α) in supernatant after 24 hours (Example 9); settings: human PBMC supernatant after 24 hours; 0.064 μM oligonucleotide
A number alone suffices; assume pg/mL.

Report measured Levels of TNF-α; entry is 830037 (antisense CTATTGGCTGATCTGG; 3-10-3 cEt gapmer, further chemistry not given here) [compound 830037]
4.1

Note Levels of TNF-α for the substance shown: 829994 (GGAGGCAGGGCCGCGA; 3-10-3 cEt gapmer, further chemistry not given here) [compound 829994]
2.9

Return reported Levels of TNF-α. Input substance: 736697 (antisense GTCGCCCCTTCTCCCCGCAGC; chemistry not fully specified) [compound 736697]
3.5

Please report Levels of TNF-α for the following substance: 790615 (CCAATGAGAATGCTTC; 3-10-3 cEt gapmer, further chemistry not given here) [compound 790615]
2.5

###

I'd appreciate it if you could supply % Inhibition values for the items below.
test system: human SMAD7 mRNA; test: Antisense inhibition of human SMAD7 mRNA expression in Hep3B cells by 3-10-3 cEt gapmers, 10,000 nM, electroporation (Example 2); format: cell-based; settings: Hep3B cells, electroporation with 10,000 nM antisense oligonucleotide, approximately 24 hours, SMAD7 mRNA by RT-PCR (RTS5062), relative to untreated control cells
Strand notation (5' to 3'): a small letter for the sugar, then the base; units joined by * are phosphorothioate-linked, units joined directly phosphodiester-linked; [ ] holds rarer units or linkages, { } end groups; capitals alone tell only the bases. k = constrained ethyl (cEt); [5mC] = 5-methylcytosine; d = 2'-deoxy (DNA)
Numbers only; they are read as %.

Provide one value: measured % Inhibition of 798882 (kA*kG*k[5mC]*d[5mC]*d[5mC]*dG*dT*d[5mC]*d[5mC]*dA*d[5mC]*dG*dG*k[5mC]*kT*kG; antisense) [compound 798882]
0

Input 830038 (antisense k[5mC]*k[5mC]*kT*dA*dT*dT*dG*dG*d[5mC]*dT*dG*dA*dT*k[5mC]*kT*kG) [compound 830038] , output reported % Inhibition.
50

For the substance 830014 (antisense kG*kG*kT*dG*d[5mC]*d[5mC]*dA*dG*dT*d[5mC]*dT*d[5mC]*dA*kA*kA*kT) [compound 830014] , give its measured % Inhibition value.
22

// Input: 798701 (antisense k[5mC]*kT*kT*d[5mC]*dT*d[5mC]*d[5mC]*d[5mC]*d[5mC]*dG*d[5mC]*dA*dG*k[5mC]*kT*k[5mC]) [compound 798701] . Output its % Inhibition only.
23

Give recorded % Inhibition. 799348 (kA*kT*kA*dA*dA*dA*dG*dG*dA*dA*dA*dG*dG*kA*kG*kT; antisense) [compound 799348]
21

Assign % Inhibition to the following record: 830066 (kA*kA*kA*dT*dG*dG*dT*dG*d[5mC]*dT*d[5mC]*dT*dG*k[5mC]*k[5mC]*k[5mC]; antisense) [compound 830066]
37

Kindly indicate its recorded % Inhibition. Item: 799508 (antisense kG*k[5mC]*kA*dA*dT*dT*dA*dA*dA*dG*d[5mC]*dA*dA*kA*kA*k[5mC]) [compound 799508]
0

Check the records and state % Inhibition for 799941 (antisense kT*kT*kT*dA*d[5mC]*dT*dA*d[5mC]*d[5mC]*dT*dT*d[5mC]*d[5mC]*kA*kG*kA) [compound 799941]
44

Give recorded % Inhibition. 798756 (k[5mC]*kG*k[5mC]*d[5mC]*d[5mC]*d[5mC]*d[5mC]*dG*dG*dG*d[5mC]*d[5mC]*d[5mC]*kA*kG*k[5mC]; antisense) [compound 798756]
16

Specify reported % Inhibition for the substance shown: 790532 (kG*k[5mC]*kA*d[5mC]*dG*dG*dG*d[5mC]*dA*dG*d[5mC]*dT*dG*k[5mC]*kT*kG; antisense) [compound 790532]
0

Please give measured % Inhibition of the following entry: 830123 (antisense kG*kG*k[5mC]*dA*d[5mC]*d[5mC]*dA*d[5mC]*dA*dT*dT*dT*dT*k[5mC]*kA*k[5mC]) [compound 830123]
44

Determine its reported % Inhibition: 799968 (k[5mC]*kT*kG*d[5mC]*dG*dA*dG*dT*dT*dA*dA*dT*d[5mC]*kA*kG*kA; antisense) [compound 799968]
27

###

tested on: human peripheral blood mononuclear cells (PBMCs); test: Human PBMC activation assay, cytokine levels (IL-10, IL-6, MCP-1, TNF-α) in supernatant after 24 hours (Example 9); conditions: human PBMC supernatant after 24 hours; 200 μM oligonucleotide
quantityKind: Levels of IL-10 (pg/mL)
Please give a number only; it is taken to be in pg/mL.

Consider the substance 736697 (antisense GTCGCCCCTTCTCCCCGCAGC; chemistry not fully specified) [compound 736697] . State its measured Levels of IL-10.
4.0

Tell me measured Levels of IL-10 for 830025 (antisense TTTGTAAATCGAAAGC; 3-10-3 cEt gapmer, further chemistry not given here) [compound 830025] please.
0.7

Quickly give me recorded Levels of IL-10 for 798781 (CGTAAGATTCACAGCA; 3-10-3 cEt gapmer, further chemistry not given here) [compound 798781]
0.6

Report Levels of IL-10, nothing else, for this substance: 829994 (GGAGGCAGGGCCGCGA; 3-10-3 cEt gapmer, further chemistry not given here) [compound 829994]
3.8
